Below, each entry is listed alongside its reported inhibition at 1 µM.
biological target: recombinant human PAI-1 (Homo sapiens); experiment: Test Example 4: Human PAI-1 Inhibitory Activity (amount of PAI-1 bound to plate-coated one-chain tPA, ELISA); format: biochemical; parameters: purchased Molecular Innovations, Inc; details: human PAI-1 bound to tPA; Compound Concentration 1µM; read-out: Inhibition Rate of PAI-1 Activity (%)
Sequence (P05121 24-402): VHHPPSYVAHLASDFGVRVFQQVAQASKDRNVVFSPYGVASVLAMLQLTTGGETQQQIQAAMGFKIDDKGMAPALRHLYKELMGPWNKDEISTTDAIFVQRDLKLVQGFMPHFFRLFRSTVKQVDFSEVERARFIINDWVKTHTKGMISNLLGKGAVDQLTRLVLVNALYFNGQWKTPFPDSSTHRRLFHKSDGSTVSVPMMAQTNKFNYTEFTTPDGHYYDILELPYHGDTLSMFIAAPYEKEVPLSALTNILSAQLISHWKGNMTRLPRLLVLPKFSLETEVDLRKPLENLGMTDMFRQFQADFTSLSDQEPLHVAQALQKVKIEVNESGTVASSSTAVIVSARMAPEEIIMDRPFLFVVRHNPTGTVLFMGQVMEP

{"columns": ["molecularString", "displayUnit", "inhibition at 1 µM"],
 "data": [
  ["CCCOc1ccc(N(Cc2ccc(C(C)(C)C)cc2)C(=O)C(=O)O)c(-c2ccc(OC(F)(F)F)cc2)c1", "%", 4],
  ["CCC(CC)Oc1ccc(-c2ccc(OC(F)(F)F)cc2)cc1N(Cc1ccc(C(C)(C)C)cc1)C(=O)C(=O)O", "%", 41],
  ["CC(C)(C)c1ccc(COc2cc(Oc3ccc(OC(F)(F)F)cc3)ccc2CCC(=O)O)cc1", "%", 39],
  ["CC(C)(C)c1ccc(CN(C(=O)C(=O)O)c2cc(-c3ccc(OC(F)(F)F)cc3)cc(C(F)(F)F)c2)cc1", "%", 10],
  ["CC(C)(Oc1cccc(-c2ccc(OC(F)(F)F)cc2)c1OCc1ccc(C(C)(C)C)cc1)C(=O)O", "%", 4],
  ["CCCCCOc1ccc(-c2ccc(OC(F)(F)F)cc2)cc1N(Cc1ccc(C(C)(C)C)cc1)C(=O)C(=O)O", "%", 22],
  ["CC(C)(C)c1ccc(COc2ccc(-c3ccc(OC(F)(F)F)cc3)cc2OCC(=O)O)cc1", "%", 4]
]}
